# apparent KD of MS2 coat protein per entry
- System: MS2 coat protein
- assay-name: apparent KD of MS2 coat protein; designed switch direction (-1 OFF switch, 1 ON switch): -1; higher = weaker reporter binding
- measurement-parameters: input ligand: FMN 200 uM
Supply the numeric figure in nM, leaving out any unit text.

polymer-sequence: UAAGGGUGCGUAGGAUAUCGCGGCCGAAUAAAGCGAGAAGGACGCCCUAAUGGGUCGUCCAACAUGAGGAUCACCCAUGUAUAC [Uslaarus] (Eterna round: R96, puzzle: Exclusion NG 1)
apparent KD of MS2 coat protein, nM: 55.4
//
polymer-sequence: GGCCCGGGAGGAUAUACAUGAGGAUCACCCAUGUUGAGCUUGAGGAUCUUCGAGUUCGGUAGAAGGCCCGGGCC [-35.1, -32.9 kcal, 22% A, 1, 0] (Eterna round: R97, puzzle: Exclusion 3)
apparent KD of MS2 coat protein, nM: 201
//
polymer-sequence: AGCUAGUCAGGAUAUUCUAAAUAUUACAUGAGGAUCACCCAUGUGAAUGGACAAGGGUGUGAAGAAGGGACUAGCG [Omei Ex5 A12] (Eterna round: R97, puzzle: Exclusion 5)
apparent KD of MS2 coat protein, nM: 262
//
polymer-sequence: AGUAGUUACGCAGGAUAUGAGGAUCACCCAUAGAAGGAUAUCGAAAGAGAAGGUCUGAGGAUUACCCAGAAGGGCGUGACUACA [pwkr exNG2 2xF5 2xFMN.5] (Eterna round: R96, puzzle: Exclusion NG 2)
apparent KD of MS2 coat protein, nM: 647

Please turn your attention to the following entry.
stdin: Which apparent KD of MS2 coat protein reading was recorded for the sequence AUUCGGAUAGGAUAUACUUGAGGAUCACCCAAGUGUUUGAACUAUCGUGAUCUGAAGAGUAGAAGGAUCAUCAU [Atquedzaed] (Eterna round: R97, puzzle: Exclusion 3) ?
stdout: 176

====

- Test system: K4 kissing-loop RNA reporter
- assay-name: apparent KD of K4 kissing-loop reporter; higher = weaker reporter binding
- measurement-parameters: Eterna round: R107; input ligand: FMN 200 uM
# apparent KD of K4 kissing-loop reporter per entry
The reply should consist of the numeric value with the unit placed after it.

Some entries whose results are on file:
polymer-sequence: UGGGUGUAGUGAUGUUAUAUAGAGAGUGAUACCAGUUUAGAGAAGAACCCUUGGCAGCAUAGAAGAGUAUCAUUGGAGGAGGAGG [ExTheophyl.Av]
assay-target: K4 kissing-loop RNA reporter
apparent KD of K4 kissing-loop reporter: 361 nM
--
polymer-sequence: AAGCAGUCACGCGAAGCCAUCGAAGAUGGUCGAGGACCGGUACGGCCGCCACUCGGAGUGAUGUUCCGAAGACUGCAAAAUAAAA
assay-target: K4 kissing-loop RNA reporter
apparent KD of K4 kissing-loop reporter: 326 nM
--
polymer-sequence: AUGCGCGCGGCGGCCGCCACUCGCAUGAGAGUGAUGUUCUCGCCGUGCCCGUAAGGGCGCGGUGUGAGGACCGGGCCGGGCUGCG [#2 Same State - Tryptophan B Attempt #21 (HarryS)]
assay-target: K4 kissing-loop RNA reporter
apparent KD of K4 kissing-loop reporter: 70.8 nM
--
polymer-sequence: UCGGACCCUGGAGGAUAUGAGUCGAGUGAUGUUCGGCGGUCCAUGCCGGUGCGGCGUUAUGCCCUUUUAGAAGGCCAGGGUCCGA [#2 Exclusion - FMN B Attempt #11 (HarryS)]
assay-target: K4 kissing-loop RNA reporter
apparent KD of K4 kissing-loop reporter: 277 nM
--
polymer-sequence: GGCAGUGAUGUUGCCAGUGGCAGAUUAGAAGGAGCGUGGUGAGACACAGGUAGGUCGCUAAUUGAAAUUGCUGUCACUAAAAUGC [#6]
assay-target: K4 kissing-loop RNA reporter
apparent KD of K4 kissing-loop reporter: 292 nM
--
polymer-sequence: GCAUAGCAGACGUUGAGUGGGAGCCAGGCACGAGGACCGGUACGGCCGCCACUCGACUAGGUUUUCAGUGAUGUUGAAAAUUUAG [Exclusion Tryptophan A GF4]
assay-target: K4 kissing-loop RNA reporter;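 also: bound reporter read as fluorescence of individual clusters on recovered sequencing chips by microscopy, with normalized cluster intensities fitted with a binding model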
apparent KD of K4 kissing-loop reporter: 151 nM

stdin: Which apparent KD of K4 kissing-loop reporter reading was recorded for the sequence UUUUUAAUCGCAGAUACCAGUCCAGAAUGAAUACUAUAGUGAUGUUAUAAUAAAGGGAAGGACCCUUGGCAGCUGUAAUAUAUUU [AstrosSsTheB#5] ?
stdout: 386 nM

stdin: Which apparent KD of K4 kissing-loop reporter reading was recorded for the sequence UGAUAGGACAGAAGGAGCGGAAGUGAUGUUUCCAAAAGGUAAAGGUGUCAAAAGACACCCUUCCAGGUAGGUCGCUGUCCUAUCU [ArgBX 12 #Palindromic #SwitchBubble #StaticStem] ?
stdout: 119 nM

stdin: Which apparent KD of K4 kissing-loop reporter reading was recorded for the sequence CGCGUGGGUUUGAGAGGGUUUGUGCGAAGUGAGGAUAUUUAGGGAGAAAGAAGGCACUAUAAAAUAUAGUGAUGUUAUAUAAGGG [SSFMNA.K] ?
stdout: 295 nM

stdin: Which apparent KD of K4 kissing-loop reporter reading was recorded for the sequence UUUAAAUAUAGUGAUGUUAUAUAACAAUGACGAGGACCGGUACGGCCGCCACUCGAGAGAGAUAAUGGUCUAUAGAAUCUAUAGC [AstrosSSTryA#4] ?
stdout: 726 nM

stdin: Which apparent KD of K4 kissing-loop reporter reading was recorded for the sequence GUGCGGCUAGUGAUGUUGGUUGCGUGGGAAGGAGCGCAGUAAAAUGCAGGUAGGUCGCCCGCAUCUCUGAUAAAAGAUUAAUUCA [KL-SSArg-A9] ?
stdout: 276 nM

stdin: Which apparent KD of K4 kissing-loop reporter reading was recorded for the sequence UGACUUGCCUGAGGAUAUCUAGGAUAUCCAUAAAAGAAAAUAAUAAUCCAGUGAUGUUGGAGAAGGAGAGAAGGCAGGUAAGUCU [KL-XFMN-B17 #DoubleAptamer #SwitchBubble] ?
stdout: 176 nM

stdin: Which apparent KD of K4 kissing-loop reporter reading was recorded for the sequence AAUGUACAAGUGAUGUUUGUACUUUCCGAAGGAGCGUCUAAUAAGACAGGUAGGUCGCGGAUUCUCUAAAUUAUCAGGUCAUUAA [JR_ExcArginiA_Sub018] ?
stdout: 91.8 nM

stdin: Which apparent KD of K4 kissing-loop reporter reading was recorded for the sequence AGUAGGAAACUACAAUCCUCUCUUACUGAAGGAGCGCGUGAAAACGCAGGUAGGUCGCAGGAUUGGAGAGUGAUGUUCUCCUUAA [Ex Arginine A K4 17] ?
stdout: 311 nM

stdin: Which apparent KD of K4 kissing-loop reporter reading was recorded for the sequence UUUGUAUCGGGAAGGAGCGUGAAUGAUAAUGAAUAUAGUGAUGUUAUAUAUAAGAACGAAUCACAGGUAGGUCGCCCGGAUGAGU [SSArgB.N] ?
stdout: 548 nM

stdin: Which apparent KD of K4 kissing-loop reporter reading was recorded for the sequence GGCGGCCGCGCGUAAGCGCGGCCGGCCGAUACCAGCGCGACGGCGCGCCCUUGGCAGCGGCGCCGAGUGAUGUUCGGCCUGCCGG [#2 Same State - Theophylline A Attempt #17 (HarryS)] ?
stdout: 376 nM

stdin: Which apparent KD of K4 kissing-loop reporter reading was recorded for the sequence GGAUAGGAUAGAGGAUAUGGUAUAGGCAAGAAUAACUUGUCAUGUAAAUCCAUGAGGAGUGAUGUUCCAGAAGGCUGUCCUAUCG [MatMod 9 - Jieux - Exclusion - FMN B] ?
stdout: 620 nM

stdin: Which apparent KD of K4 kissing-loop reporter reading was recorded for the sequence CGUGCCCGGCCGGAUACCAGUGACCCGCUGGGAACCGCGGGCCCAGAGUGAUGUUCGGGACACCCUUGGCAGCCGCCUGGGCUGC [#2 Same State - Theophylline B Attempt #14 (HarryS)] ?
stdout: 540 nM

stdin: Which apparent KD of K4 kissing-loop reporter reading was recorded for the sequence GCAUAUACGAGAAGGAGCGUGCAUGACGAAUUAAUCAUCGACCUUAGUGAUGUUAAGGACGCACAGGUAGGUCGCUCGUGUAUGC [#04 K4 Arginine B Same State] ?
stdout: 380 nM

stdin: Which apparent KD of K4 kissing-loop reporter reading was recorded for the sequence CCUAUCUCAUACGAUACCAGUCAAUAUAAACGAGUGAUGUUCGAAAUAAUAUGCCAUCACGACCCUUGGCAGCGUAUGGGAUAGG [Ex Theophylline B K4 6] ?
stdout: 158 nM

stdin: Which apparent KD of K4 kissing-loop reporter reading was recorded for the sequence UAAGUGAUUCACAAGCUAGAGUUACUCGAAGGAGCGACGAAUUCGUCAGGUAGGUCGCGAGUGAUGUUCGCAUGCUCUAGCAAAU [AK1 Exc Arginine A] ?
stdout: 655 nM

stdin: Which apparent KD of K4 kissing-loop reporter reading was recorded for the sequence UUCAGACUACUACUAGACAGUAGUAUAUACUAGGAUAUCCAGAUAUGGAGAAGGAGUGAUGUUCCCUAGUAGUAGUGAAUUAAAU [KL-XFMN-A5] ?
stdout: 661 nM

Where do these numbers come from? They come from the supplement of paper PMC9170038.
